- systemTested: GluN1-4a/GluN2D NMDARs (Rattus norvegicus, UniProt P35439+Q62645)
- Construct: expressed in transfected cells; host or cells: Xenopus laevis oocytes injected with cRNA
- Sequence (Q62645 28-1323, other chains not shown): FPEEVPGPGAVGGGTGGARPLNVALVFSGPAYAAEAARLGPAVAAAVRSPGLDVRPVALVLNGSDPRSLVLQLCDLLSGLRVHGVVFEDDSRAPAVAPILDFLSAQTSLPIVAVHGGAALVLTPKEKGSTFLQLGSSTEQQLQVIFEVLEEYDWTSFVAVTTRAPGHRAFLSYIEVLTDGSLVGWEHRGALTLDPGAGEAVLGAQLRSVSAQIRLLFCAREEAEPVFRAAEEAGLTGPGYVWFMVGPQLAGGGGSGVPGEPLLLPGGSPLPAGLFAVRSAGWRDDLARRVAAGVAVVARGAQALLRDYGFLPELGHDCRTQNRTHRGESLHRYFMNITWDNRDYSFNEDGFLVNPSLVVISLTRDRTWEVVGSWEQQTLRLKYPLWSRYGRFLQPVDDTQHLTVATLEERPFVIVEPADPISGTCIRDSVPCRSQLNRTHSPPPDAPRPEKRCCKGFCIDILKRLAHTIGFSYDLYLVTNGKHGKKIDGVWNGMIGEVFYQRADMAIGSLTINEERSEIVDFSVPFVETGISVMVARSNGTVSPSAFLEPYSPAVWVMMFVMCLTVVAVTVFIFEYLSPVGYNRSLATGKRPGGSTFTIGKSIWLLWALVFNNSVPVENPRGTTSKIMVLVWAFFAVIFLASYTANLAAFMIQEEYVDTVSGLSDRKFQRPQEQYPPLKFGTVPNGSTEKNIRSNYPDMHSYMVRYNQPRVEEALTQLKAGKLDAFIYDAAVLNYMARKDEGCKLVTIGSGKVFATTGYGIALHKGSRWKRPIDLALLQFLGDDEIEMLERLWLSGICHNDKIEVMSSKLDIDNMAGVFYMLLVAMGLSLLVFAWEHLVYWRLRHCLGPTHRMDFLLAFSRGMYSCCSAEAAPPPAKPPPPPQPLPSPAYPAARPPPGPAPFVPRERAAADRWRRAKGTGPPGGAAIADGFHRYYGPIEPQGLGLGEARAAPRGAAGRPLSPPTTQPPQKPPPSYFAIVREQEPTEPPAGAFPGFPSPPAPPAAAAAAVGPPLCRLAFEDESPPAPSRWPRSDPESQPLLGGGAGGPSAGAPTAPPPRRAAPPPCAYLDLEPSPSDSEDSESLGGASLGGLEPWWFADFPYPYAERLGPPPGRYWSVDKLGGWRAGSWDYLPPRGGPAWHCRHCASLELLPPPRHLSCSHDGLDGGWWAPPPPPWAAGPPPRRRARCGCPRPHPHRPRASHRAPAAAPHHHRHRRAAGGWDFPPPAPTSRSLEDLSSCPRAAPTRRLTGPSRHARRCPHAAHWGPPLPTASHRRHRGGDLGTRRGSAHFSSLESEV
- runDescription: TEVC electrophysiology on Xenopus laevis oocytes expressing GluN1-4a/GluN2D
- Type: cell-based
- settings: Ki, Cheng–Prusoff; 100 μM glycine, 1 or 3 μM L-glutamate
- Text: The chemical definition of UBP791 used in this study is a cis-racemic mixture of (2S,3R)- and (2R,3S)-isomers. Plasmids (pSP or pCI_NEO) harboring rat GluN1 or GluN2 full-length subunits were linearized by restriction digestion and transcribed according to the manufacturer’s instructions (mMESSAGE mMachine SP6 or T7 kit, ThermoFisher Scientific). […]
pKi: −log10 of the molar value.
observationType: pKi

Challenge: pKi for O=C(O)CCc1ccc2c(ccc3cc(C(=O)N4CCN[C@@H](C(=O)O)[C@H]4C(=O)O)ccc32)c1 (relative stereo) ?
Response given: 7.05 to 7.10

Reference source: paper PMC6976569
